Test system: surinam grass
ASSAY EXPLANATION: Test B pre/postemergence surinam grass
Type: in vivo, Brachiaria decumbens
RECORDED CONDITIONS: Rate 500 g/ha, Postemergence; scale 0 to 10, 0 no effect, 10 complete control
MEASUREMENT TYPE: B. signalgrass plant response rating
Give bare numbers.

>  <MOLECULE>
COc1cc(C)cc(C)c1-n1c(=O)on(C(=O)N(c2ccc(F)cc2F)C(C)C)c1=O [Compound 223]

>  <RECORDED MEASUREMENT>
0

$$$$
>  <MOLECULE>
CSc1ccc(N(C(=O)n2oc(=O)n(-c3ccccc3C)c2=O)C(C)C)cc1 [Compound 205]

>  <RECORDED MEASUREMENT>
0

$$$$
>  <MOLECULE>
CC(C)n1c(=O)on(C(=O)N(c2ccc(Cl)cc2Cl)C2CCC2)c1=O [Compound 319]

>  <RECORDED MEASUREMENT>
0

$$$$

Turning now to a further molecule:
Need B. signalgrass plant response rating of CC(C)N(C(=O)n1oc(=O)n(N(C)C)c1=O)c1ccccc1 [Compound 225] , thanks.
9

The origin of these recorded values is patent US6737383B1.
